Settings: 308.15 K; 101.33 kPa; Liquid; Falling or rolling sphere viscometry
Param label: returns fulfilled when viscosity < 300 mPa·s, returns not fulfilled otherwise, including exact equality.

INSERT INTO results (compound, group_label) VALUES
  ('CCCC[NH2+]CCO.O=C[O-] [N-(2-hydroxyethyl)butan-1-aminium formate]', 'fulfilled'),
  ('CC(=O)[O-].CCCC[NH2+]CCO [N-(2-hydroxyethyl)butan-1-aminium acetate]', 'fulfilled'),
  ('CCC(=O)[O-].CCCC[NH2+]CCO [N-(2-hydroxyethyl)butan-1-aminium propionate]', 'fulfilled');

Q: Input CCCC(=O)[O-].CCCC[NH2+]CCO [N-(2-hydroxyethyl)butan-1-aminium butyrate] ; condition: viscosity strictly below 300 mPa·s. Does it hold?
Ans: not fulfilled

Q: Now consider CCCCC(=O)[O-].CCCC[NH2+]CCO [N-(2-hydroxyethyl)butan-1-aminium pentanoate] and answer again.
Ans: not fulfilled
